Attribution: paper PMC4608253

# experiment: in vivo
# Type: in vivo, A/J mice
# cond: male, A/J, mouse, whole blood, po, 500 mg/kg
The entries below come with measured Cmax values attached.
measurement.label: Cmax (nM)

>  <compound>
O=c1cc(-c2ccccc2)oc2cc(O)c(O)c(O)c12

>  <unit.symbol>
nM

>  <test.value>
32.7

$$$$
>  <compound>
CC(C)=CCC[C@](C)(O[C@@H]1O[C@H](CO)[C@@H](O)[C@H](O)[C@H]1O)[C@H]1CC[C@]2(C)[C@@H]1[C@H](O)C[C@@H]1[C@@]3(C)CC[C@H](O)C(C)(C)[C@@H]3[C@@H](O[C@@H]3O[C@H](CO)[C@@H](O)[C@H](O)[C@H]3O[C@@H]3O[C@@H](C)[C@H](O)[C@@H](O)[C@H]3O)C[C@]12C [Re, ginsenoside Re]

>  <unit.symbol>
nM

>  <test.value>
50.2

$$$$
>  <compound>
COc1c(O)cc(O)c2c(=O)cc(-c3ccccc3)oc12

>  <unit.symbol>
nM

>  <test.value>
18.8

$$$$
>  <compound>
CC1(C)[C@@H](O)CC[C@]2(C)[C@H]3C(=O)C=C4[C@@H]5C[C@@](C)(C(=O)O)CC[C@]5(C)CC[C@@]4(C)[C@]3(C)CC[C@@H]12

>  <unit.symbol>
nM

>  <test.value>
263

$$$$
>  <compound>
O=C1C[C@@H](c2ccc(O[C@@H]3O[C@H](CO)[C@@H](O)[C@H](O)[C@H]3O)cc2)Oc2cc(O)ccc21

>  <unit.symbol>
nM

>  <test.value>
48.7

$$$$
>  <compound>
O=C(O)[C@H]1O[C@@H](Oc2cc3oc(-c4ccccc4)cc(=O)c3c(O)c2O)[C@H](O)[C@@H](O)[C@@H]1O

>  <unit.symbol>
nM

>  <test.value>
787

$$$$
